Examples of compounds with documented pIC50 follow.
SYSTEM NAME: MAPKAPK2 Recombinant Human Protein (Homo sapiens, UniProt P49137)
Construct: purchased ThermoFisher pv3317
Sequence (P49137 whole entry): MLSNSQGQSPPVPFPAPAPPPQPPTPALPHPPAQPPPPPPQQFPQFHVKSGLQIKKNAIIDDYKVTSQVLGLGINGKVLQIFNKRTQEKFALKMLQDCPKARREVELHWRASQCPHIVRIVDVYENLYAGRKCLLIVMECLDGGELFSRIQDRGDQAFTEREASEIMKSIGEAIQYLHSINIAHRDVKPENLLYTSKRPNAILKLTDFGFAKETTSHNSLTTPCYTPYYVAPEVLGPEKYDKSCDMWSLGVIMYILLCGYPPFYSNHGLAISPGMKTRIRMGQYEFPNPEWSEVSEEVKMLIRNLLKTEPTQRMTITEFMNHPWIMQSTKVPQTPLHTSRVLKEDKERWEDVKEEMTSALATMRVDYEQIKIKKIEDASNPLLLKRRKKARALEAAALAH
EXPERIMENTAL DETAILS: MK2 kinase assay (Z'-LYTE kinase assay kit)
SETTINGS: inhibition of MK2 biochemical activity; 90 min incubation at room temperature
pIC50: −log10 of the molar value.

Known results for compounds:
COMPOUND: CN(CCO)C[C@H]1CCN(c2ccc3c(c2)Cn2cc(-c4ccc(F)cc4)cc2-c2nccn2-3)C1=O
RESULT: > 7.30
--
COMPOUND: Cc1nnc2n1-c1ccc(N3CCC(CN(C)C)C3=O)cc1Cn1cc(-c3ccc(C#N)cc3)cc1-2 (stereo not shown)
RESULT: 7.00 to 7.30
--
COMPOUND: CN1CC2(C1)CN(C(=O)c1ccc3c(c1)Cn1cc(-c4ccc(C#N)cc4)cc1-c1nccn1-3)C2
RESULT: 7.00 to 7.30

## Input Output reported pIC50 of the compound CC1(C)CCN1C[C@H]1CC(=O)N(c2ccc3c(c2)Cn2cc(-c4ccc(C#N)cc4)cc2-c2nccn2-3)C1 on MAPKAPK2 Recombinant Human Protein (Homo sapiens, UniProt P49137).
## Output > 7.30

###

SYSTEM NAME: MAPKAPK2 Recombinant Human Protein (Homo sapiens)
EXPERIMENTAL DETAILS: MK2 kinase assay (Z'-LYTE kinase assay kit)
SETTINGS: inhibition of MK2 biochemical activity; 90 min incubation at room temperature
RECORDED ENDPOINT: IC50

COMPOUND: CN(C)[C@H]1C[C@H](NC(=O)c2ccc3c(c2)Cn2cc(-c4ccc(C#N)cc4)cc2-c2nccn2-3)C1 [Example 126]
SYSTEM NAME: MAPKAPK2 Recombinant Human Protein (Homo sapiens)
IC50: < 50 nM
//
COMPOUND: CN1CC(C)(CN2C(=O)CN(c3ccc4c(c3)Cn3cc(-c5ccc(C#N)cc5)cc3-c3nccn3-4)C2=O)C1 [Example 65]
SYSTEM NAME: MAPKAPK2 Recombinant Human Protein (Homo sapiens)
IC50: < 50 nM
//
COMPOUND: CN(C)CCn1ccn(-c2ccc3c(c2)Cn2cc(-c4ccc(C#N)cc4)cc2-c2nccn2-3)c1=O [Example 70]
SYSTEM NAME: MAPKAPK2 Recombinant Human Protein (Homo sapiens)
IC50: < 50 nM

Next, consider the following compound.
## Input Note down IC50 recorded for CN(C)[C@H]1CCN(c2ccc3c(c2)Cn2cc(-c4ccc(C#N)cc4)cc2-c2nccn2-3)C1=O [Example 25]
## Output 50 to 100 nM

###

// reported pIC50 for each item listed
Tested on: THP-1 cells
EXPERIMENTAL DETAILS: THP-1 cell assay: LPS-stimulated pSer78-Hsp27 ELISA
Assay type: cell-based
SETTINGS: Homo sapiens, PMA-differentiated THP-1 cells, compound 60 min before 20 ng/mL LPS for 30 min
pIC50: −log10 of the molar value.

# annotated cases, reported pIC50 shown
COMPOUND: CN(C)C[C@H]1CC(=O)N(c2ccc3c(c2)Cn2cc(-c4ccc(C#N)cc4)cc2-c2nccn2-3)C1
SYSTEM NAME: THP-1 cells
pIC50: > 7.30
//
COMPOUND: CN1CC(CN2C(=O)CN(c3ccc4c(c3)Cn3cc(-c5ccc(C#N)cc5)cc3-c3nccn3-4)C2=O)C1
SYSTEM NAME: THP-1 cells
pIC50: < 6.00

## Input Look up and state reported pIC50 for CN(C)C[C@H]1CCN1C(=O)c1ccc2c(c1)Cn1cc(-c3ccc(C#N)cc3)cc1-c1nccn1-2
## Output 6.52 to 6.70

## Input Look up and report measured pIC50 for this entry: CN(C)C[C@H]1CCN(c2ccc3c(c2)Cn2cc(-c4ccc(C#N)cc4)cc2-c2nccn2-3)C1=O (single isomer, unassigned)
## Output > 7.30

## Input # return recorded pIC50 for entry CN(C)C[C@@H]1CN(c2ccc3c(c2)Cn2cc(-c4ccc(C#N)cc4)cc2-c2nccn2-3)C(=O)O1
## Output > 7.30

## Input Give recorded pIC50. CN(C)[C@H]1C[C@H](NC(=O)c2ccc3c(c2)Cn2cc(-c4ccc(C#N)cc4)cc2-c2nccn2-3)C1
## Output 6.00 to 6.30

## Input Provide measured pIC50 value, entry: CN(CCO)C[C@H]1CCN(c2ccc3c(c2)Cn2cc(-c4ccc(F)cc4)cc2-c2nccn2-3)C1=O
## Output 7.00 to 7.30

## Input Specify reported pIC50 for the compound shown: N#Cc1ccc(-c2cc3n(c2)Cc2cc(NC(=O)C4CCNC4)ccc2-n2ccnc2-3)cc1 (stereo not drawn)
## Output 5.82 to 6.00

## Input Given CC(C)(C1CC(=O)N(c2ccc3c(c2)Cn2cc(-c4ccc(C#N)cc4)cc2-c2nccn2-3)C1)N1CCC1 (stereo not drawn) , respond with its pIC50.
## Output > 7.30

## Input State, in one line, measured pIC50 of N#Cc1ccc(-c2cc3n(c2)Cc2cc(N4CC(=O)N(CC5CNC5)C4=O)ccc2-n2ccnc2-3)cc1
## Output < 6.00

## Input Fill in reported pIC50 for this entry: CC1(C)CCN1C[C@H]1CC(=O)N(c2ccc3c(c2)Cn2cc(-c4ccc(C#N)cc4)cc2-c2nccn2-3)C1
## Output 7.00 to 7.30

## Input Input CN(C)CC1CCN(c2ccc3c(c2)Cn2cc(-c4ccc(C#N)cc4)cc2-c2nccn2-3)C1=O (stereo not drawn) , output reported pIC50.
## Output > 7.30

Entry source: patent US20240140958A1
